System: OVCAR-8 ovarian
Assay: NCI-60 one-dose screen, 48 h (100 = growth as untreated, 0 = no growth, -100 = all killed)
Conditions: 10 µM
The panel holds about 83,000 compounds, 20% with a hit somewhere; the sample as a whole holds those more often.
Decide using growth: a value greater than or equal to 80% is Y, a smaller one is N.

COMPOUND: CS(=O)(=O)Nc1ccc([N+](=O)[O-])cc1Oc1ccccc1
DISCRETE_LABEL: Y
//
COMPOUND: Nc1nc(SCC#CCCl)c2[nH]cnc2n1
DISCRETE_LABEL: N
//
COMPOUND: CCOc1nc(-c2ccccc2)cc2c(O)c(C(=O)NC(C)C)[nH]c(=O)c12
DISCRETE_LABEL: Y
//
COMPOUND: CCc1c(C(=O)NCc2c(O)ccc3cccc(O)c23)[nH]c(C)c1C(C)=O
DISCRETE_LABEL: N
//
COMPOUND: CC(=O)Nc1ccc2c(c1)C(N1CC3CCC(CC3)C1)c1ccccc1-2 (stereo not given)
DISCRETE_LABEL: Y
//
COMPOUND: NC(=O)C12C(=O)NC(=O)C1(C(=O)O)C21CCCC1 (stereo not given)
DISCRETE_LABEL: Y
//
COMPOUND: Cn1cnc([N+](=O)[O-])c1Sc1nnc(-c2ccccc2)c(-c2ccccc2)n1
DISCRETE_LABEL: Y
//
COMPOUND: O=C(OCc1ncc(-c2ccc(C(F)(F)F)cc2)c(NC2CCCCCC2)n1)c1c(F)c(F)c(F)c(F)c1F
DISCRETE_LABEL: N
//
COMPOUND: COc1cc(/C=C/C(=O)c2cc(-c3ccc(C(F)(F)F)cc3)ccc2O)cc(OC)c1OC
DISCRETE_LABEL: N
//
COMPOUND: Cc1cc(O)c(C2=NN(c3ccc(S(N)(=O)=O)cc3)C(c3ccc(N(C)C)cc3)C2)c(C)c1Cl (stereo not given)
DISCRETE_LABEL: N

----------
Test system: SF-539 CNS
Assay: NCI-60 one-dose screen, 48 h
Settings: 10 µM
The panel holds about 83,000 compounds, 20% with a hit somewhere; the sample as a whole holds those more often. Calls of active or inactive are those of the source. Rule for the calls: active = growth percent below 10; inactive = the rest.
Outcomes: TRUE for active, FALSE for inactive

COMPOUND: Cc1noc(C)c1-c1ccc2nc(NC(=O)[C@H]3CCN(C#N)C3)cn2c1
DISCRETE_LABEL: FALSE
--
COMPOUND: O=C(NC1CCCC1)c1ccc(N2CCC(NCc3cccc(C(F)(F)F)c3)CC2)cc1
DISCRETE_LABEL: FALSE
--
COMPOUND: CN1/C(=C\C(I)C(I)C2=[N+](C)c3ccccc3C2(C)C)C(C)(C)c2ccccc21 (stereo unspecified)
DISCRETE_LABEL: FALSE
--
COMPOUND: COc1cc2ccnc(C=O)c2cc1OC
DISCRETE_LABEL: FALSE
--
COMPOUND: O=[N+]([O-])c1ccc(-c2nc(-c3ccccc3)c(-c3ccccc3)n2-c2ccccc2)cc1
DISCRETE_LABEL: FALSE
--
COMPOUND: CC(C)C[C@H](NC(=O)CCn1ccc2ccccc2c1=O)B(O)O
DISCRETE_LABEL: TRUE
--
COMPOUND: CCCCCC(=O)N1c2ccccc2NC2=C(C(=O)CC(c3ccc(OC)c(OC)c3)C2)C1c1ccc(C(F)(F)F)cc1 (stereo unspecified)
DISCRETE_LABEL: FALSE
--
COMPOUND: CCNC1(NC#N)CCCCC1
DISCRETE_LABEL: FALSE
--
COMPOUND: CC(C)=C1CCC(C)C/C1=N\N=C(N)N (stereo unspecified)
DISCRETE_LABEL: FALSE
--
COMPOUND: COc1ccc(/C(CS(=O)(=O)c2ccccc2)=N\O)cc1
DISCRETE_LABEL: FALSE
--
COMPOUND: CC(=O)[C@H]1CC[C@H]2[C@@H]3CC[C@@H]4CC=C(C=O)C[C@]4(C)[C@H]3CC[C@]12C
DISCRETE_LABEL: FALSE
